Record form. Attribute: kon. Fill in for each entry.
# assay-target: T1, Human ST2 (human, UniProt Q01638 19-328, limits assumed)
# T1 construct: also called human ST2 protein; Interleukin 1 receptor-like 1
# T1 sequence (looked up): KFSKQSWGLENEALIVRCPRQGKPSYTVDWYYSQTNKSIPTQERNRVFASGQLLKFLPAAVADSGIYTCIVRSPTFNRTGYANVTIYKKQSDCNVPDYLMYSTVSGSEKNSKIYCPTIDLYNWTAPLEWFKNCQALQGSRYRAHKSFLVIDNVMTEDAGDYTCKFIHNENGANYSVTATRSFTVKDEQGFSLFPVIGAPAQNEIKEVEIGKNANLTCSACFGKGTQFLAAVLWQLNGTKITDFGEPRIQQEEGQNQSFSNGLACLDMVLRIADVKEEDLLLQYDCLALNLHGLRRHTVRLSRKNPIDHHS
# experiment-summary: SPR (Carterra), antibody immobilized, ST2 analyte
Numbers only, in M⁻¹ s⁻¹.

Field: example entries. Status: answers known.
binder	quantitative-result
Human ST2 IgG1 Antibody 23 (antibody, V domains shown, IgG1; also called ST2 Antibody 23) VH: EVQLLESGGGLVKPGGSLRLSCAASGFTFSSYWMHWVRQAPGKGLEWVSSISSRSSYIYYADSVKGRFTISRDDSKNTLYLQMNSLKTEDTAVYYCAREGNGMDVWGQGTTVTVSS VL: DIQMTQSPSSLSASVGDRVTITCQASQDIGSYLNWYQQKPGKAPKLLIYAASSLQSGVPSRFSGSGSGTDFTLTISSLQPEDFATYYCLQSYSTPFTFGGGTKVEIKR	150000
Human ST2 IgG1 Antibody 71 (antibody, V domains shown, IgG1; also called ST2 Antibody 71) VH: QVQLVQSGAEVKKPGASVKVSCKASGGTFSNYGVSWVRQAPGQGLEWMGGINPSRGTTTYAQKFQGRVTMTRDTSTSTVYMELSSLRSEDTAVYYCAKGDIVVVPAAMFSLGPGYYYYMDVWGKGTTVTVSS VL: DIQMTQSPSSLSASVGDRVTITCRASQSISSYLNWYQQKPGKAPKLLIYAASSLQSGVPSRFSGSGSGTDFTLTISSLQPEDFATYYCQQANSFPITFGQGTKLEIKR	140000

Now for another entry.
So, Human ST2 IgG1 Antibody 25 (antibody, V domains shown, IgG1; also called ST2 Antibody 25) VH: QVQLVQSGAEVKKPGSSVKVSCKASGGTFSNYAISWVRQAPGQGLEWMGWISAYNGNTNYAQKFQGRVTMTRDTSTSTVYMELSSLRSEDTAVYYCARSTNALDYWGQGTLVTVSS VL: DIQMTQSPSSLSASVGDRVTITCRASQGIRSNLDWYQQKPGKAPKLLISIVSNLGSGVPSRFSGSGSGTDFTLTISSLQPEDFATYYCLQHNSNPPTFGGGTKVEIKR ? Its kon was 150000
